Tested on: MS2 coat protein
Assay: apparent KD of MS2 coat protein; designed switch direction (-1 OFF switch, 1 ON switch): 1; higher = weaker reporter binding
Conditions: input ligand: FMN 200 uM
apparent KD of MS2 coat protein by entry:

- seq: "UGGCUGGUGCUAGGAUAUCCAUGAGGAAUCCUCGUAGAAGGAGCACGACAUGAGGAUCACCCAUGUAGCCGUCCGUAGACGGCU [salish99_SSNG1_r04_008] (Eterna round: R96, puzzle: Same State NG 1)"
  apparent KD of MS2 coat protein / µM: 0.287
- seq: "ACAUGAGAAAGAGGAUAUUUUGUACCUACAUGUGACAUGAGGAUCACCCAUGUGGUAAGUAUGAGAAAGAAGGCUUAGAUAUGU [Equivalence 13 - Jieux - Same State NG 2] (Eterna round: R96, puzzle: Same State NG 2)"
  apparent KD of MS2 coat protein / µM: 0.0206
- seq: "GCUCGGAUGAUGGCCCACAUGAGGAUCACCCAUGUGCGUGGGCAGGAUAUCUAGAUUAAGGAUGUAGAGAAGGGCCUACCGAGC [SameState NG3 #33] (Eterna round: R96, puzzle: Same State NG 3)"
  apparent KD of MS2 coat protein / µM: 0.543
- seq: "GCUCGAAUCAGAACCAACAUGAGGAUCACCCAUGUGUGUUGGUAGGAUAUCGUUUCUAAGGGAAACGAGAAGGGCCGAACGAGC [SameState NG3 #7] (Eterna round: R96, puzzle: Same State NG 3)"
  apparent KD of MS2 coat protein / µM: 0.0469

====

Tested on: MS2 coat protein
Experiment: apparent KD of MS2 coat protein; designed switch direction (-1 OFF switch, 1 ON switch): -1; higher = weaker reporter binding
Settings: input ligand: none
Record 1 (yes) whenever apparent KD of MS2 coat protein is at 40 nM or higher; record 0 (no) when lower.

- seq: "AGCUGUGGCCGAGGAUAUCACAUGAGGAUCACCCAUGUACAUGAUUAAGCCUGGUAACAGGCUCAUGAGAAGGCGGUCUCAGCA [Eli eng2 - 014] (Eterna round: R96, puzzle: Exclusion NG 2)"
  assignedCategory: "0 (no)"
- seq: "UGUCAGUCAGGAUAUGCAUACGUAGACAUGAGGAUCACCCAUGUGACGUGGGCCUGGUGUGUAGAAGGGACGAACA [EX5 #80] (Eterna round: R97, puzzle: Exclusion 5)"
  assignedCategory: "0 (no)"
- seq: "GGAAGGAGUGUAAGGAUAUCCUCCUCGAAAGAGGAGGAGAAGGUACAUGAGGAUCACCCAUGUAGAGGAGGAGG [AK-MS2ROC-r4-Bmoexclusion4-10.1] (Eterna round: R97, puzzle: Brourd's mod of Exclusion 4)"
  assignedCategory: "0 (no)"
- seq: "CGUCUGUAAGGAUAUGGUUACAUCGACAUGAGGAUCACCCAUGUGACGUGGGACUAGUGAUUAGAAGGUACGAACG [EX5 #65] (Eterna round: R97, puzzle: Exclusion 5)"
  assignedCategory: "1 (yes)"
- seq: "UUUAUAUAUGAAGGAUAUACUUAACAUGAGGAUCACCCAUGUGGUGUUGUGAGUGAGUGAGUUUAGUAGAAGGUCAAGUAUUUU [JMF's solution 49] (Eterna round: R96, puzzle: Exclusion NG 2)"
  assignedCategory: "1 (yes)"
